Form field: inhibition at 2 μM (one value per entry).
- system tested: BCRP/ABCG2 (Homo sapiens)
- Construct: expressed in transfected cells; host or cells: HEK-293 transfected with pcDNA3.1-ABCG2
- Sequence (Q9UNQ0 1-655): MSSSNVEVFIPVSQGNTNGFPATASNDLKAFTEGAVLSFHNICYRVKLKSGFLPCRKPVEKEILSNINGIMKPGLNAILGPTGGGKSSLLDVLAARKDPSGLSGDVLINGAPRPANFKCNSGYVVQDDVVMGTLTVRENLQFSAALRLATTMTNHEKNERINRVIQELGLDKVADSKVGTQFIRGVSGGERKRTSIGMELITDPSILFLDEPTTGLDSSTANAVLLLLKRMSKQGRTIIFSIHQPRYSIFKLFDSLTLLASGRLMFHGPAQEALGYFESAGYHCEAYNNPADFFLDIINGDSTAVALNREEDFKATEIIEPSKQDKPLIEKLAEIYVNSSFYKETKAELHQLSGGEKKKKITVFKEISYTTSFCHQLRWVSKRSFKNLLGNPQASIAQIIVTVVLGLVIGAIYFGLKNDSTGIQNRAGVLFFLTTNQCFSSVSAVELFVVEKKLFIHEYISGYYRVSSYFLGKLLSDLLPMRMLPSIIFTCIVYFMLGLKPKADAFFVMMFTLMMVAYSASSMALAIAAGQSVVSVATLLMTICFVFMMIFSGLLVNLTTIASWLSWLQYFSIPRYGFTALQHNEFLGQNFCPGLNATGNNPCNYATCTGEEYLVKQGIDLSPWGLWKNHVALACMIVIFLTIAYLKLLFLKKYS
- method description: Flow cytometry: mitoxantrone efflux induced by ABCG2 in transfected HEK-293 cells
- Type: cell-based
- measurement parameters: human, HEK-293 cells transfected with ABCG2 (vector pcDNA3.1), probe mitoxantrone (5 μM); 2 μM compound; mitoxantrone efflux; HEK-293 cells; read-out: BCRP/ABCG2 % efficacy 2 μM
endpoint: inhibition at 2 μM (%)

[
  {
    "smiles string": "CC(C)(C)OC(=O)N[C@H](CNN(CCCCCCNC(=O)OCc1ccccc1)C(=O)OC(C)(C)C)CC(=O)OCc1ccccc1",
    "value units": "%",
    "observed value": 72
  },
  {
    "smiles string": "CC(C)(C)OC(=O)N[C@H](CNN(CCCCCCNC(=O)OCc1ccccc1)C(=O)OCc1ccccc1)CC(=O)OCc1ccccc1",
    "value units": "%",
    "observed value": 92
  },
  {
    "smiles string": "CC(C)(C)OC(=O)NN(C(=O)N[C@@H](CCCCNC(=O)OCc1ccccc1)C(=O)OC(C)(C)C)c1ccccc1C(=O)OCc1ccccc1",
    "value units": "%",
    "observed value": 53
  },
  {
    "smiles string": "CC(C)(C)OC(=O)NN(C(=O)N[C@@H](CCCCNC(=O)OCc1ccccc1)C(=O)OC(C)(C)C)c1cccc(C(=O)OCc2ccccc2)c1",
    "value units": "%",
    "observed value": 86
  }
]

* * *

- system tested: BCRP/ABCG2 (Homo sapiens)
- method description: Flow cytometry: mitoxantrone efflux induced by ABCG2 in transfected HEK-293 cells
- measurement parameters: mitoxantrone efflux; HEK-293 cells
pIC50: −log10 of the molar value.

[
  {
    "compound": "CC(C)(C)OC(=O)N[C@H](CNN(CCCCCCNC(=O)OCc1ccccc1)C(=O)OC(C)(C)C)CC(=O)OCc1ccccc1 [IB.1]",
    "pIC50": 6.05
  },
  {
    "compound": "CC(C)(C)OC(=O)NN(C(=O)N[C@@H](CCCCNC(=O)OCc1ccccc1)C(=O)OC(C)(C)C)c1ccccc1C(=O)OCc1ccccc1 [IA.1]",
    "pIC50": 5.70
  },
  {
    "compound": "CC(C)(C)OC(=O)N[C@H](CNN(CCCCCCNC(=O)OCc1ccccc1)C(=O)OCc1ccccc1)CC(=O)OCc1ccccc1 [IB.11]",
    "pIC50": 6.30
  }
]
